Entry source: ChEMBL document CHEMBL1255504

Biological target: Protein Mdm4 (Homo sapiens) (UniProt O15151)
Sequence (whole entry): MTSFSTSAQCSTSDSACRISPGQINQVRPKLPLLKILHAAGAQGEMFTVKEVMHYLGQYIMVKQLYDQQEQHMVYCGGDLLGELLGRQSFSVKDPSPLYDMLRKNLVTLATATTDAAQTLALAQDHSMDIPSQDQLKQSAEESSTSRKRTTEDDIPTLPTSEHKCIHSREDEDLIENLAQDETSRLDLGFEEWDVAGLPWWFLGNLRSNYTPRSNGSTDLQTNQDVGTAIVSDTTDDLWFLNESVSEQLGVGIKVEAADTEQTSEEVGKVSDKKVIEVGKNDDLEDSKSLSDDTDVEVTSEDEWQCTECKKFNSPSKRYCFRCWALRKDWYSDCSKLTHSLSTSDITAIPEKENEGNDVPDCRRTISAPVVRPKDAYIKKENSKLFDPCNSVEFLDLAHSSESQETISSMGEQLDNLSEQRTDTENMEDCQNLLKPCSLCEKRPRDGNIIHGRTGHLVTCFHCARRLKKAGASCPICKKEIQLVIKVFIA
Assay: Inhibition of GST-tagged MDMX expressed in Escherichia coli harboring integrated p53-Hmd2 protein assessed as blockade of enzyme-p53 interaction by beta-galactosidase assay
Details: concentration not given here
Observed property: inhibition (%)

H-CKAVLF-OH
7
H-CDLRWF-OH
6
H-CRLLDF-OH
7

[I] H-CHLRWL-OH
[II] H-CLFFNY-OH
Exercise: Compare inhibition: is it lower for I or for II ? Give the chosen item's label as your response.
Key: I
(I: 10%, II: 18%)
